- METHOD_DESCRIPTION: Apparent permeability of compound
- Assay type: ADME
- CONDITION_SET: not told
READOUT_TYPE: Papp (×10⁻⁶ cm/s)
Write down the numeric answer in ×10⁻⁶ cm/s and omit the unit.

>  <MOLECULE>
COC(C)(C)c1cnc2n1C[C@H](c1cccc(F)c1F)CC[C@H]2NC(=O)N1CCC2(CC1)OC(=O)Nc1ncccc12

>  <READOUT_TYPE>
Papp

>  <EXPERIMENTAL_VALUE>
24

$$$$

input: If you can, please state the reported Papp value of `O=C(N[C@@H]1CC[C@@H](c2cccc(F)c2F)Cn2c(CC(F)(F)F)cnc21)N1CCC(n2c(=O)[nH]c3ncccc32)CC1` .
output: 24

input: If you can, please state the reported Papp value of O=C(N[C@@H]1CC[C@@H](c2cccc(F)c2F)CN(CC(F)(F)F)C1=O)N1CCC(n2c(=O)[nH]c3ncccc32)CC1 [TELCAGEPANT] .
output: 21

input: If you can, please state the reported Papp value of `O=C(N[C@@H]1CC[C@@H](c2cccc(F)c2F)Cn2c(C3CC3)nnc21)N1CCC(n2c(=O)[nH]c3ncccc32)CC1` .
output: 4
